For reference, IC50 measured on Human Tyk2 kinase domain (Homo sapiens):

Examples from the recorded data:
Query: Return IC50 measured with Human Tyk2 kinase domain (Homo sapiens) given this molecule: CN1CCN(c2ccc(-c3cc4nccn4c(-c4cnn(C(CC#N)C5CC5)c4)n3)cc2)CC1 (stereo not shown)
Sequence (P29597 886-1187): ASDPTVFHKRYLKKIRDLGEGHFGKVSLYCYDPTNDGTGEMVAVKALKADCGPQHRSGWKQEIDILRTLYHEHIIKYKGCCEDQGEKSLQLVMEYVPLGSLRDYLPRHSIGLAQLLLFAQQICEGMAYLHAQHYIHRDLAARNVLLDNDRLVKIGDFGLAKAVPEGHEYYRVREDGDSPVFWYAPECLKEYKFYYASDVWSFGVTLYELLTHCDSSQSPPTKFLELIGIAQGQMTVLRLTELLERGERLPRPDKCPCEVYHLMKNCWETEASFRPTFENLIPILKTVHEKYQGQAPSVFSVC
Response: < 10 nM

Query: Give recorded IC50 with Human Tyk2 kinase domain (Homo sapiens) for the following molecule: `N#CCC1(n2cc(-c3nc(C4CC4)cc4nccn34)cn2)CN(CC(F)(F)F)C1`
Response: 100 to 1000 nM

New cases:
Query: Query for Human Tyk2 kinase domain (Homo sapiens): what IC50 does the record show for `CCN1CCC(CC#N)(n2cc(-c3nc(-c4cnn(C)c4)cc4nccn34)cn2)CC1` ?
Response: 100 to 1000 nM

Query: // fetch Human Tyk2 kinase domain (Homo sapiens) IC50 for CC(CC#N)n1cc(-c2nc(-c3ccc(N4CCOCC4)cc3)cc3nccn23)cn1 (stereo not shown)
Response: < 10 nM

Query: I'm curious: which IC50 was measured for `N#CCC1(n2cc(-c3nc(-c4cnn(C5COC5)c4)cc4ncc(Cl)n34)cn2)CN(CC(F)(F)F)C1` tested on Human Tyk2 kinase domain (Homo sapiens)?
Response: < 10 nM

Query: Request body: readout IC50, system Human Tyk2 kinase domain (Homo sapiens), query `Cc1nn(CCC#N)cc1-c1nc(-c2cnn(C)c2)cc2nccn12` . Return the value.
Response: 100 to 1000 nM

Query: What measured IC50 is associated with Cn1cc(-c2cc3nccn3c(-c3ccn(C(CC#N)C4CC4)n3)n2)cn1 (stereo not shown) on Human Tyk2 kinase domain (Homo sapiens)?
Response: 10 to 100 nM

###

Measured IC50 (UniProtKB O60674)

Past entries and their recorded results:
Query: I'm curious: which IC50 was measured for `Cc1ncc(-c2cc3nccn3c(-c3cnn(C4(CC#N)CN(S(=O)(=O)C(F)(F)F)C4)c3)n2)s1` tested on UniProtKB O60674?
Response: 0.01 to 0.1 µM

Query: What IC50 appears in the records for this compound with UniProtKB O60674? `CN1CC(CC#N)(n2cc(-c3nc(-c4cnn(C)c4)cc4nccn34)cn2)C1`
Response: 0.1 to 1 µM

Query: Give UniProtKB O60674 IC50 for Cc1cc(-c2cc3nccn3c(-c3cnn(C(CC#N)C4CC4)c3)n2)ccn1 (centres unmarked)
Response: 0.1 to 1 µM

Continuing:
Query: Quick check: IC50 on UniProtKB O60674, item N#CCC(C1CC1)n1cc(-c2nc(-c3cnn(C4COC4)c3)cc3nccn23)cn1 (centres unmarked) ?
Response: 0.01 to 0.1 µM

Query: Query IC50 on UniProtKB O60674 for `CC(C)(CC#N)n1cc(-c2nc(-c3ccc(N4CCOCC4)cc3)cc3nccn23)cn1`
Response: 0.1 to 1 µM

Query: Item Cn1cc(-c2cc3nccn3c(-c3ccn(C(CC#N)C4CC4)c3)n2)cn1 (centres unmarked) with UniProtKB O60674 - IC50?
Response: 0.01 to 0.1 µM

Query: Under UniProtKB O60674: IC50 value of CN1CCC(c2ccc(-c3cc4nccn4c(-c4cnn(C(CC#N)C5CCCC5)c4)n3)cc2)CC1 (single isomer, unassigned) ?
Response: 0.1 to 1 µM

Query: Provide value of IC50 for this record tested with UniProtKB O60674: `Cn1ccc(-c2cc3nccn3c(-c3ccn(C4(CC#N)CN(CC(F)(F)F)C4)n3)n2)cc1=O`
Response: 0.1 to 1 µM

###

Reported values of IC50 for individual entries
# TARGET OR SYSTEM: JAK3 (Homo sapiens)
# Sequence (P52333 whole entry): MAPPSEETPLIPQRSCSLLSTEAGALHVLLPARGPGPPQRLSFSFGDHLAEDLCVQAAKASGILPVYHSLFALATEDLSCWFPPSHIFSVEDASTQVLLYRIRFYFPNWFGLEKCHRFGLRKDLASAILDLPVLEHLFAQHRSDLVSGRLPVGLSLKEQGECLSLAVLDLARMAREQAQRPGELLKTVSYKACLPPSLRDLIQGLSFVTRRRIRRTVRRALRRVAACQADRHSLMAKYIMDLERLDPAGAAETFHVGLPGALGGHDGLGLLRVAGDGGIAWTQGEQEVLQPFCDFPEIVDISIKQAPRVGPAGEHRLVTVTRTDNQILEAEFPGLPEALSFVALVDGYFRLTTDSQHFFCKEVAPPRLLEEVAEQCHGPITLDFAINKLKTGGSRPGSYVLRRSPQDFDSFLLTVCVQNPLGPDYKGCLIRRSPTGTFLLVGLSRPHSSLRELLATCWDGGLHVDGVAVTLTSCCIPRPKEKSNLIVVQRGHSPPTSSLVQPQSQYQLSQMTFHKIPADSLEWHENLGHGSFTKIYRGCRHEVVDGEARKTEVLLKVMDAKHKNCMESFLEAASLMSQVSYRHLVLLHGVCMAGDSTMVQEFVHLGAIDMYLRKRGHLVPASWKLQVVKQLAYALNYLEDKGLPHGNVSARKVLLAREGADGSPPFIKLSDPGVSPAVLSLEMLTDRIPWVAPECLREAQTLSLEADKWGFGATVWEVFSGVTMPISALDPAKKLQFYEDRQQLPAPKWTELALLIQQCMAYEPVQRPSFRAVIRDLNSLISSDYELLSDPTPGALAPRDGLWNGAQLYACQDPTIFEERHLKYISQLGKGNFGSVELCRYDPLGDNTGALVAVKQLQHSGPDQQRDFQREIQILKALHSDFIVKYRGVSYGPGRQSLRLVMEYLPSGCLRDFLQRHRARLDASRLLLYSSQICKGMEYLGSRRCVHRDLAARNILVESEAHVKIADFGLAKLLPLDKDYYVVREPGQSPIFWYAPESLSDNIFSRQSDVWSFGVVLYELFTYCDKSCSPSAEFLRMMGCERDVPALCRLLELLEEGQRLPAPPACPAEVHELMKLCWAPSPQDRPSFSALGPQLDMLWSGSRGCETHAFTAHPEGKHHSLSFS
Structures can show the parent of a compound that is named as a salt.

Here's what some known entries look like.
Query: JAK3 (Homo sapiens) / IC50 / CN1CCC(c2ccc(-c3cc4nccn4c(-c4cnn(C(CC#N)C5CCCC5)c4)n3)cc2)CC1 (stereo not shown) [Example 110] : value?
Response: 100 to 1000 nM

Query: Form entry - test system: JAK3 (Homo sapiens); read-out: IC50; molecule: CN1CCC(c2ccc(-c3cc4nccn4c(-c4cnn(C(CC#N)C5CCCC5)c4)n3)cc2)CC1 (single isomer, unassigned) [Example 111]
Response: 100 to 1000 nM

Query: Short answer please: IC50, JAK3 (Homo sapiens), entry `CN1CCN(c2ccc(-c3cc4nccn4c(-c4cnn(C5(CC#N)CN(CC(F)(F)F)C5)c4)n3)cc2)CC1`
Response: 100 to 1000 nM

Query: Find the measured IC50: item CC(CC#N)n1cc(-c2nc(-c3ccc(N4CCOCC4)cc3)cc3nccn23)cn1 (stereo not shown) , target or system JAK3 (Homo sapiens).
Response: 100 to 1000 nM

Query: Request body: readout IC50, system JAK3 (Homo sapiens), query Cn1cc(-c2cc3nccn3c(-c3ccn(C4(CC#N)CNC4)c3)n2)cn1 [Example 127, trifluoroacetate] . Return the value.
Response: > 1000 nM

Query: Report IC50 for `Cn1cc(-c2cc3nccn3c(-c3ccn(C4(CC#N)CN(CC(F)(F)F)C4)n3)n2)ccc1=O` tested on JAK3 (Homo sapiens).
Response: > 1000 nM

Turning now to a further molecule:
Query: Param readout= IC50; system= JAK3 (Homo sapiens); entry= `Cn1cc(-c2cc3nccn3c(-c3cnn(C4(CC#N)CN(S(=O)(=O)C(F)(F)F)C4)c3)n2)cn1` ; returns value.
Response: 100 to 1000 nM

###

Reported pIC50, JAK2 (Homo sapiens).
pIC50: −log10 of the molar value.

Here are 4 molecules together with their reported answers.
Query: State its pIC50 on JAK2 (Homo sapiens): Cn1cc(-c2cc3nccn3c(-c3cnn(C(CC#N)c4ccc(Cl)cc4)c3)n2)cn1 (centres unmarked) [Example 14]
Response: 7.00 to 8.00

Query: API: value(readout= pIC50, system= JAK2 (Homo sapiens), query= N#CCC(C1CC1)n1cc(-c2nc(-c3cncs3)cc3nccn23)cn1 (centres unmarked) [Example 47] )
Response: 6.00 to 7.00

Query: Form field: pIC50 recorded for CCCN1CCC(CC#N)(n2cc(-c3nc(-c4cnn(C)c4)cc4nccn34)cn2)CC1 [Example 30] with JAK2 (Homo sapiens) (enter value)
Response: < 6.00

Query: GET /values?readout=pIC50&system=JAK2 (Homo sapiens)&item= CC(C)n1cc(-c2cc3nccn3c(-c3cnn(C4(CC#N)CN(S(=O)(=O)C(F)(F)F)C4)c3)n2)cn1 [Example 101]
Response: > 8.00

Now, please, on to the next molecule.
Query: Give the reported pIC50 for Cn1cc(-c2cc3nccn3c(-c3cnn(C4(CC#N)CN(S(=O)(=O)c5ccccc5)C4)c3)n2)cn1 [Example 99] (system: JAK2 (Homo sapiens)).
Response: 6.00 to 7.00

###

In this section we review reported IC50 values for a set of compounds.
# TARGET OR SYSTEM: JAK2 (Homo sapiens, UniProt O60674)
# Construct: purchased Invitrogen Corporation, Carlsbad, Calif; PV4288
# Sequence (O60674 whole entry): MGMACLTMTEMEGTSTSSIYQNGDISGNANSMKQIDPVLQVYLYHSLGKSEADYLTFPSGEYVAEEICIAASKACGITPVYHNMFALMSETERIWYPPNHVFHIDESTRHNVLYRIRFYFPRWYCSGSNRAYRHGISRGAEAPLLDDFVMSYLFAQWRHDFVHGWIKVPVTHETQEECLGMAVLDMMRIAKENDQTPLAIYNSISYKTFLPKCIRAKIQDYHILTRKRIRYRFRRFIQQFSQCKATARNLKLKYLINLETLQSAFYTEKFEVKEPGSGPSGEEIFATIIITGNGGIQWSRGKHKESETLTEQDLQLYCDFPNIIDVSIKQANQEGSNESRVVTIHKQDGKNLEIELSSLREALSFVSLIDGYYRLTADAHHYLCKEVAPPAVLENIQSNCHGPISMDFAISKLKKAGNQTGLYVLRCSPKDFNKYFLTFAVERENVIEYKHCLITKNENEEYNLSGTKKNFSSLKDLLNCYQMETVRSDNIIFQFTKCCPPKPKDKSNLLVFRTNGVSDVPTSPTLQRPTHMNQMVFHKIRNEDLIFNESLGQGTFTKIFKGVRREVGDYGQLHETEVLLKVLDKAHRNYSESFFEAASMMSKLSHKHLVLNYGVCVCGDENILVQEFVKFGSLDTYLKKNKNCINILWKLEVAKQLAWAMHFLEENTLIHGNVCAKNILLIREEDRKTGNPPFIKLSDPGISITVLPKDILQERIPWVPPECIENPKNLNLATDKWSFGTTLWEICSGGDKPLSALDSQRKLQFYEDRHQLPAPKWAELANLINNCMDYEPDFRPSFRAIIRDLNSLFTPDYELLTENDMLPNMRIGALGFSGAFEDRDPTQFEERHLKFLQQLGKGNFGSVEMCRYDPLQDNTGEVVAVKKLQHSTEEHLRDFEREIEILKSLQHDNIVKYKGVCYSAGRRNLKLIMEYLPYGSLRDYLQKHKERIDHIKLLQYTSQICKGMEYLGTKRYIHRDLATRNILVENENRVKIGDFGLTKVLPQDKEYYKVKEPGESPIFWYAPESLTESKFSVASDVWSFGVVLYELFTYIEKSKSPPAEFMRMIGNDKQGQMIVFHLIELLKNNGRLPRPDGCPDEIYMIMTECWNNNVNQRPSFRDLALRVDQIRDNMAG
# ASSAY METHOD TEXT: JAK2 Inhibition Assay (Omnia kinase fluorescence peptide substrate assay)
# Assay type: biochemical
# MEASUREMENT SETUP: averaged IC50 ranges; assay of Example C; 25 μM (Km app) or 1 mM ATP, 5 nM JAK2

Query: Report IC50 for Cn1cc(-c2cc3nccn3c(-c3cnn(C4(CC#N)CN(c5ncccn5)C4)c3)n2)cn1 [Example 68] tested on JAK2 (Homo sapiens, UniProt O60674).
Response: > 1000 nM

Query: Lookup: IC50 / JAK2 (Homo sapiens, UniProt O60674) / CS(=O)(=O)CCn1cc(-c2cc3nccn3c(-c3ccn(C4(CC#N)CN(CC(F)(F)F)C4)n3)n2)cn1 [Example 143]
Response: 10 to 100 nM

Query: For JAK2 (Homo sapiens, UniProt O60674), provide IC50 of Cn1cc(-c2cc3nccn3c(-c3cnn(C4(CC#N)CN(Cc5ccccc5)C4)c3)n2)cn1 [Example 88] please.
Response: 100 to 1000 nM

Query: Notebook: pull reported IC50 for JAK2 (Homo sapiens, UniProt O60674), entry N#CCC(C1CC1)n1cc(-c2nc(-c3ccc(N4CC5CCC(C4)O5)cc3)cc3nccn23)cn1 (stereo not shown) [Example 58]
Response: 10 to 100 nM

Query: Lab note: need IC50 for Cn1cc(-c2cc3nccn3c(-c3cnn(C4(CC#N)CN(C(CF)CF)C4)c3)n2)cn1 [Example 79] on JAK2 (Homo sapiens, UniProt O60674), anyone have it?
Response: 100 to 1000 nM

Query: Form field - read-out: IC50; system: JAK2 (Homo sapiens, UniProt O60674); submitted item: Cc1ncc(-c2cc3nccn3c(-c3cnn(C4(CC#N)CN(S(=O)(=O)C5CC5)C4)c3)n2)s1 [Example 140]
Response: 10 to 100 nM

Query: Can you look up IC50 on JAK2 (Homo sapiens, UniProt O60674) for Cc1nn(C(CC#N)C2CC2)cc1-c1nc(-c2cnn(C)c2)cc2nccn12 (stereo not shown) [Example 109] ?
Response: 100 to 1000 nM

Query: Field: IC50 (JAK2 (Homo sapiens, UniProt O60674)). Entry: Cn1cc(-c2cc3nccn3c(-c3cnn(C4(CC#N)CCN(C(=O)OC(C)(C)C)CC4)c3)n2)cn1 [Example 21]
Response: > 1000 nM

Query: Provide the documented IC50 with JAK2 (Homo sapiens, UniProt O60674) as the system for N#CCC(C1CC1)n1cc(-c2nc(-c3cn[nH]c3)cc3nccn23)cn1 (stereo not shown) [Example 33]
Response: 100 to 1000 nM

Query: Enter reported IC50 observed with JAK2 (Homo sapiens, UniProt O60674) for CN1CCN(c2ccc(-c3cc4nccn4c(-c4cnn(C(CC#N)C5CC5)c4)n3)cc2)CC1 (stereo not shown) [Example 59]
Response: 10 to 100 nM
